# Test system: SK-BR-3 cells
# Measurement Protocol: Measurement of cell growth inhibition (crystal violet staining method)
# Format: cell-based
# Experimental Conditions: Homo sapiens; breast cancer SK-BR-3 cells, 72 hr culture with test substance
So I've got a bunch of molecules here, and I need their IC50 values.
Numbers only, in µM.

Use the examples below as a reference point.
{"columns": ["Smiles Data", "Assayed System", "IC50 [µM]"],
 "data": [
  ["CC(C)c1nn(-c2ccc(C(N)=O)cc2C#N)c2nccc(-n3cnc(-c4cnn(C)c4)c3)c12", "SK-BR-3 cells", 0.59],
  ["Cc1cn(-c2ccc(C(N)=O)c(S[C@H]3CC[C@H](O)CC3)c2)c2nccc(-c3cnc4ccccc4c3)c12", "SK-BR-3 cells", 0.51],
  ["CC(C)c1nn(-c2ccc(C(N)=O)c(NCCN3CCCC3)c2)c2nccc(-n3cnc(-c4cnn(C)c4)c3)c12", "SK-BR-3 cells", 0.24]
]}

Entry CC(C)c1nn(-c2ccc(C(N)=O)c(NCC(F)(F)F)c2)c2nccc(-n3cnc(-c4cnn(C)c4)c3)c12 — recorded IC50 = 0.18

----------
For each of the compounds below, state its IC50.
# Assayed System: human HSP90 alpha protein (HSP90 N-terminal protein, amino acids 2-236) (Homo sapiens (Human))
# Measurement Protocol: Measurement of HSP90-binding activity (AlphaScreen competitive assay, biotin-labeled geldanamycin)
# Experimental Conditions: concentration inhibiting binding of biotin-labeled geldanamycin (40 nM) to purified HSP90 to 50% of control; read-out: HSP-binding activity IC50
One number for each entry, in nM.

{"columns": ["Compound", "Quantitative Readout"],
 "data": [
  ["CCc1nn(-c2ccc(C(N)=O)c(N[C@H]3CC[C@H](O)CC3)c2)c2nccc(-c3cnc4ccccc4c3)c12 [Example 3]", 170],
  ["CC(C)c1nn(-c2ccc(C(N)=O)c(N(O)C3CCCCC3)c2)c2nccc(-n3cnc(-c4cnn(C)c4)c3)c12 [Example 89]", 70],
  ["Cc1cc(-n2nc(C(C)C)c3c(-c4cnc5ccccc5c4)ccnc32)ccc1C(N)=O [Example 81]", 1030]
]}

For record Cc1c(-n2nc(C(C)C)c3c(-n4cnc(-c5cnn(C)c5)c4)ccnc32)ccc(C(N)=O)c1F [Example 130] the listed IC50 is 690

----------
# Assayed System: human HSP90 alpha protein (HSP90 N-terminal protein, amino acids 2-236) (Homo sapiens (Human), UniProt P07900)
# Measurement Protocol: Measurement of HSP90-binding activity (AlphaScreen competitive assay, biotin-labeled geldanamycin)
# Experimental Conditions: concentration inhibiting binding of biotin-labeled geldanamycin (40 nM) to purified HSP90 to 50% of control; read-out: HSP-binding activity IC50
Task for the reader: assign each of the following compounds its reported IC50.
One number for each entry, in nM.

Take each entry in turn and give its IC50.
1. CCn1cc(-c2cn(-c3ccnc4c3c(C(F)(F)F)nn4-c3ccc(C(N)=O)cc3N)cn2)cn1
2. Cc1cc(C(N)=O)ccc1-n1nc(C(C)C)c2c(-c3cnc4ccccc4c3)ccnc21
3. Cc1cc(C(N)=O)ccc1-n1nc(C(C)C)c2c(-n3cnc(-c4ccncc4)c3)ccnc21
4. CCCc1cc(C(N)=O)ccc1-n1nc(C(C)C)c2c(-n3cnc(-c4cnn(C)c4)c3)ccnc21

OUTPUT:
1. 230
2. 470
3. 390
4. 120
